Target: T1, cynomolgus monkey B7-H4 (cynomolgus monkey, UniProt Q7Z7D3 29-282 (human entry))
T1 construct: On stably transfected 293 cells; also called cyno B7-H4; recombinant cynomolgus monkey B7-H4
T1 chain: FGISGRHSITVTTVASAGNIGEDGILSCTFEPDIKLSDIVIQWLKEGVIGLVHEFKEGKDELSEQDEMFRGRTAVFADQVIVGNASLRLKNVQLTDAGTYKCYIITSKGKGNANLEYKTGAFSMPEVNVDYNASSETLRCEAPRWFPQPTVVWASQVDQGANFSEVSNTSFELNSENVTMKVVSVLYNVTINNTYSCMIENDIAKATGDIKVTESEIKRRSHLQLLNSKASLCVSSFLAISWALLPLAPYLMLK
Test: Scatchard analysis, 125I-antibody radioligand cell binding on stably transfected 293 cells
valueType: Kd (nM)
Number only, in nM; omit the unit.

Worked cases, Kd given:
chimeric antibody ch32D6 (antibody, human IgG1, V domains shown, also called antibody 32D6) VH: EVQLQQSGPDLVKPGASVKISCKASGYSFTGYYIHWMKQSHGKSLEWIGRVNPNNGDPIYNQKFRGKAILTVDQSSNTAYMELRSLTSEASAVYYCARVLFYYGSPFAYWGQGTLVTVSA VL: DIVMTQSPSSLIVTAGEKVTMSCRSSQSLFDSGSQRNYLTWFHQKPGRPPKLLIYWASTRESGVPDRFTGSGSGTDFTLTISSVQTEDLAVYFCQNDYSFPFTFGSGTKLEEK; 3.1
chimeric antibody ch9B9 (antibody, human IgG1, V domains shown, also called antibody 9B9) VH: QVQLQQSGAELMKPGASVKMSCKATGYTFSSYWIEWVKQRPGHGLEWIGEILPGTSITTYNAKFKVKATFTADTSSNTAYMQLSSLTSEDSAVYFCARYYFGSSSFYFDYWGQGTSLTVSS VL: QAVVTQESALTTSPGDTVTLTCRSSTGAVTTSNYANWVQEKPDHLFTGLIGGTNNRVPGVPARFSGSLIGDKAALTITGAQTEDEAMYFCALWYNNHWVFGGGTKLE; 5.2
chimeric antibody ch22C10 (antibody, human IgG1, V domains shown, also called ch2210; parental 22C10 antibody) VH: QVQLQQPGAELVKPGTSVKLSCKASGYTFTNFWIHWVIQRPGQGLEWIGEIDPSDSYTNYNQKFKGKATLTVDKSSNTAYMQLSSLTSEDSAVYYCSREITTVDYWGQGTTLTVSS VL: QIVLTQSPTIMSASPGEKVTLTCSATSSISYMHWYQQKPGTSPKGWIYDTSKLAHGVPARFSGSGSGTSYSLTISSMEAEDAATYYCHQRRSYPFTFGSGTKLEIK; 4.6

Now let's try a different one.
[in] Find the recorded Kd belonging to chimeric antibody ch1D11 (antibody, human IgG1, V domains shown, also called parental 1D11 antibody; antibody 1D11) VH: QVQLQQSGAELVRPGTSVKMSCKASGYTFTSYWIGWAKQRPGHGFEWIGDIYPGGGYTNYNEKFKGKATLTADKSSSTAYMQFSSLTSEDSAIYYCARLDGSSYRGAMDSWGQGTSITVSS VL: DIQMTQSPSSLSASLGGKVTITCKASQGFNKYVAWYQHKPGQCPRLLIHYTSTLQPGIPARFSGSGSGRDYSFSISNLEPEDSATYFCLQYGNLLYAFGGGTKLEIKR and report it.
[out] 4.1
